Experiment: Acute toxicity, DL50 (mice), ip
Settings: mouse, in vivo
Counter-ions that a name gives are not always drawn.
hey, just use condition met if measured LD50 is less than 400 mg/kg, otherwise condition not met

q: Could you please tell me whether LD50 recorded for Cl.Cl.O=c1oc(CCN2CCN(c3ccccc3)CC2)c(-c2ccc(F)cc2)o1 is less than 400 mg/kg?
a: condition not met

q: Could you please tell me whether LD50 recorded for COc1ccc(-c2oc(=O)oc2CCN2CCN(c3ccccc3)CC2)cc1.Cl.Cl is less than 400 mg/kg?
a: condition not met

q: Could you please tell me whether LD50 recorded for Cl.O=c1oc(CCN2CCN(c3cc(Cl)cc(Cl)c3)CC2)c(-c2ccc(F)cc2)o1 is less than 400 mg/kg?
a: condition not met

q: Could you please tell me whether LD50 recorded for Cl.Cl.O=c1oc(CCN2CCN(c3ccccn3)CC2)c(-c2ccc(F)cc2)o1 is less than 400 mg/kg?
a: condition met

q: Could you please tell me whether LD50 recorded for CN1CCN(CCc2oc(=O)oc2-c2ccc(F)cc2)CC1.Cl.Cl is less than 400 mg/kg?
a: condition met

q: Could you please tell me whether LD50 recorded for Cl.O=c1oc(CCN2CCN(C(c3ccccc3)c3ccccc3)CC2)c(-c2ccc(Cl)cc2)o1 is less than 400 mg/kg?
a: condition not met

q: Could you please tell me whether LD50 recorded for CC1CN(CCc2oc(=O)oc2-c2ccc(F)cc2)CCN1c1ccc(Cl)cc1.Cl.Cl (centres unmarked) is less than 400 mg/kg?
a: condition not met

q: Could you please tell me whether LD50 recorded for CN(CCc1ccccc1)CCc1oc(=O)oc1-c1ccc(F)cc1.Cl is less than 400 mg/kg?
a: condition met

q: Could you please tell me whether LD50 recorded for Cl.O=c1oc(CCCN2CCN(c3ccccc3)CC2)c(-c2ccc(F)cc2)o1 is less than 400 mg/kg?
a: condition not met

q: Could you please tell me whether LD50 recorded for COc1ccccc1N1CCN(CCc2oc(=O)oc2-c2ccc(F)cc2)CC1.Cl.Cl is less than 400 mg/kg?
a: condition met

q: Could you please tell me whether LD50 recorded for Cl.Cl.O=c1oc(CCN2CCN(c3ccccc3)CC2)c(-c2ccc(Cl)cc2)o1 is less than 400 mg/kg?
a: condition not met

q: Could you please tell me whether LD50 recorded for Cl.Cl.O=c1oc(CCN2CCN(c3ccccc3)CC2)c(-c2ccccc2)o1 is less than 400 mg/kg?
a: condition not met

q: Could you please tell me whether LD50 recorded for CSc1ccc(-c2oc(=O)oc2CCN2CCN(c3ccccc3)CC2)cc1.Cl.Cl is less than 400 mg/kg?
a: condition not met

q: Could you please tell me whether LD50 recorded for Cc1ccc(-c2oc(=O)oc2CCN2CCN(c3ccccc3)CC2)cc1.Cl is less than 400 mg/kg?
a: condition not met

q: Could you please tell me whether LD50 recorded for O=C(O)/C=C\C(=O)O.O=c1oc(CCN2CCN(c3ncccn3)CC2)c(-c2ccc(Cl)cc2)o1 is less than 400 mg/kg?
a: condition met

q: Could you please tell me whether LD50 recorded for O=c1oc(CCN2CCC(c3ccccc3)CC2)c(-c2ccc(Cl)cc2)o1 [Compound 22, hydrochloride] is less than 400 mg/kg?
a: condition not met

q: Could you please tell me whether LD50 recorded for Cl.O=c1oc(CCN2CCC3(CCCCC3)CC2)c(-c2ccc(F)cc2)o1 is less than 400 mg/kg?
a: condition met
